- TEST SUMMARY: Metabolic stability in human skin S9 fraction measured upto 120 mins by LC-MS analysis
- Format: ADME, subcellular
This section presents compounds with their documented half-life values.
# value in min; strip the unit string

> print(dat)
                                smiles.repr  observable  endpoint.value
1  CCOC(=O)CCc1ccc(Nc2cc(Nc3ccccc3Cl)c(C(N)=O)cn2)nc1   half-life               8
2  COCCOC(=O)Cc1ccc(Nc2cc(Nc3ccccc3OC)c(C(N)=O)cn2)nc1   half-life               5
3  CCOC(=O)Oc1cccc(Nc2cc(Nc3ccccc3Cl)c(C(N)=O)cn2)n1   half-life               7
4  COc1ccccc1Nc1cc(Nc2ccc(CC(=O)O[C@@H]3CCOC3)cn2)ncc1C(N)=O   half-life               8
5  COC[C@@H](C)OC(=O)Cc1ccc(Nc2cc(Nc3ccccc3OC)c(C(N)=O)cn2)nc1   half-life              42
6  COC[C@H](C)OC(=O)Cc1ccc(Nc2cc(Nc3ccccc3OC)c(C(N)=O)cn2)nc1   half-life              12
7  CCOC(=O)Cc1ccc(Nc2cc(Nc3ccccc3Cl)c(C(N)=O)cn2)nc1   half-life              14

(Q) May I ask what half-life has been recorded for COc1ccccc1Nc1cc(Nc2ccc(CC(=O)O[C@H]3CCOC3)cn2)ncc1C(N)=O ?
(A) 39
